Quick reference: IL-2 luciferase reporter, fold increase over WT CD80-IgV-Fc at 5.0 nM of the listed items.
# assay-system: CD28 (human) (UniProt P10747)
State the answer as a number, implicitly in fold.

As a guide, the following entries are already answered.
binder: variant CD80 IgV-Fc M47V/V68M (Fc fusion) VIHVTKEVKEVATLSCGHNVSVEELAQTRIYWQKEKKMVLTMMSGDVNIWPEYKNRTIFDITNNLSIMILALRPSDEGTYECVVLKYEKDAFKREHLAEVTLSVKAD
readout-units: fold
endpoint-result: 4.8
//
binder: variant CD80 IgV-Fc M47V/N48K/V68M (Fc fusion) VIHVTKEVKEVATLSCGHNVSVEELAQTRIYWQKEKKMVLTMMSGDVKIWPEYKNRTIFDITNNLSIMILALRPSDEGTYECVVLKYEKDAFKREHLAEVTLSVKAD
readout-units: fold
endpoint-result: 5.8
//
binder: variant CD80 IgV-Fc E35D/M47V/V68M/L85Q/K89N (Fc fusion) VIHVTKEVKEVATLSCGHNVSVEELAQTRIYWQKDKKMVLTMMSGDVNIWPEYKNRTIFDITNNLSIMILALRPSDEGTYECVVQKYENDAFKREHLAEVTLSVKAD
readout-units: fold
endpoint-result: 7.4
//
binder: variant CD80 IgV-Fc E35D/D46V/M47V/N48K/V68M (Fc fusion) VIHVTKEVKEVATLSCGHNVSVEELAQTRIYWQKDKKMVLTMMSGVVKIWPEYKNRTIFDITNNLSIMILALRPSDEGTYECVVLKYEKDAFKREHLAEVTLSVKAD
readout-units: fold
endpoint-result: 6.1
//
binder: variant CD80 IgV-Fc E35D/M47V/K89N (Fc fusion) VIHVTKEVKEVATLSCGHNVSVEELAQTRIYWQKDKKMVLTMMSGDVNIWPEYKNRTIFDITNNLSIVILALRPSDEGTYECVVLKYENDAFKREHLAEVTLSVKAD
readout-units: fold
endpoint-result: 5.8

# IL-2 luciferase reporter, fold increase over WT CD80-IgV-Fc at 5.0 nM (binder: variant CD80 IgV-Fc E35D/K89N (Fc fusion) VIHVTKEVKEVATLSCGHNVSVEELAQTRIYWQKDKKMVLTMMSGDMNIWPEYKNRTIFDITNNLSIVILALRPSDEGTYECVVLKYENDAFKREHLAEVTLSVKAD ) is 2.5

# IL-2 luciferase reporter, fold increase over WT CD80-IgV-Fc at 5.0 nM (binder: variant CD80 IgV-Fc E35D/M47V/N48K/V68M/L85Q (Fc fusion) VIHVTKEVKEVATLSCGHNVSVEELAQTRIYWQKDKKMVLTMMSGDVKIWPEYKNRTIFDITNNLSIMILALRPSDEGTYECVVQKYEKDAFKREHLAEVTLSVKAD ) is 7.9

# IL-2 luciferase reporter, fold increase over WT CD80-IgV-Fc at 5.0 nM (binder: variant CD80 IgV-Fc E35D/M47V (Fc fusion) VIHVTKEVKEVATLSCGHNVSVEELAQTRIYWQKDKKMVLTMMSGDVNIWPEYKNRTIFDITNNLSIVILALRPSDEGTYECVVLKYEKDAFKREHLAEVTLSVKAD ) is 4.7
